System: pooled human cryopreserved hepatocytes (pHHeps)
Assay: Metabolic stability, pooled human cryopreserved hepatocyte incubations
Settings: from pHHeps CLint, well-stirred model with plasma fu, Q 21 mL min^−1 kg^−1
Field: Predicted In Vivo Hepatic Clearance, CLH. Provide a value for each of the compounds that follow.
# output: bare number, implied unit mL/min/kg

Query: Predicted In Vivo Hepatic Clearance, CLH; subject: C=CCCCn1nc(C(=O)N[C@@H](C(=O)OC)C(C)(C)C)c2ccccc21 [(R)-MDMB-4en-PINACA (5)]
5.16

Query: Predicted In Vivo Hepatic Clearance, CLH; subject: COC(=O)[C@H](NC(=O)c1nn(CCCCCF)c2ccccc12)C(C)(C)C [(R)-5F-MDMB-PINACA (2)]
8.16

Query: Predicted In Vivo Hepatic Clearance, CLH; subject: COC(=O)[C@H](NC(=O)c1nn(CCCCF)c2ccccc12)C(C)(C)C [(R)-4F-MDMB-BINACA (4)]
8.77

Query: Predicted In Vivo Hepatic Clearance, CLH; subject: C=CCCCn1nc(C(=O)N[C@H](C(=O)OC)C(C)(C)C)c2ccccc21 [(S)-MDMB-4en-PINACA (5)]
5.11

Query: Predicted In Vivo Hepatic Clearance, CLH; subject: COC(=O)[C@@H](NC(=O)c1nn(Cc2ccc(F)cc2)c2ccccc12)C(C)C [(S)-AMB-FUBINACA (1)]
15.52

Query: Predicted In Vivo Hepatic Clearance, CLH; subject: C=CCCCn1cc(C(=O)N[C@H](C(=O)OC)C(C)(C)C)c2ccccc21 [(S)-MDMB-4en-PICA (12)]
5.46

Query: Predicted In Vivo Hepatic Clearance, CLH; subject: C=CCCCn1cc(C(=O)N[C@@H](C(=O)OC)C(C)C)c2ccccc21 [(R)-AMB-4en-PICA (7)]
16.79

Query: Predicted In Vivo Hepatic Clearance, CLH; subject: COC(=O)[C@@H](NC(=O)c1cn(CC2CCCCC2)c2ccccc12)C(C)C [(S)-AMB-CHMICA (9)]
7.68

Query: Predicted In Vivo Hepatic Clearance, CLH; subject: C=CCCCn1cc(C(=O)N[C@H](C(=O)OC)C(C)C)c2ccccc21 [(S)-AMB-4en-PICA (7)]
15.56

Query: Predicted In Vivo Hepatic Clearance, CLH; subject: COC(=O)[C@@H](NC(=O)c1nn(CCCCCF)c2ccccc12)C(C)(C)C [(S)-5F-MDMB-PINACA (2)]
8.05

Query: Predicted In Vivo Hepatic Clearance, CLH; subject: CC(C)[C@H](NC(=O)c1nn(Cc2ccc(F)cc2)c2ccccc12)C(N)=O [(S)-AB-FUBINACA (8)]
2.06

Query: Predicted In Vivo Hepatic Clearance, CLH; subject: COC(=O)[C@@H](NC(=O)c1cn(CCCCCF)c2ccccc12)C(C)(C)C [(S)-5F-MDMB-PICA (3)]
7.87

Query: Predicted In Vivo Hepatic Clearance, CLH; subject: COC(=O)[C@@H](NC(=O)c1nn(CCCCF)c2ccccc12)C(C)(C)C [(S)-4F-MDMB-BINACA (4)]
12.08

Query: Predicted In Vivo Hepatic Clearance, CLH; subject: COC(=O)[C@H](NC(=O)c1cn(CCCCCF)c2ccccc12)C(C)(C)C [(R)-5F-MDMB-PICA (3)]
6.27

Query: Predicted In Vivo Hepatic Clearance, CLH; subject: C=CCCCn1cc(C(=O)N[C@@H](C(=O)OC)C(C)(C)C)c2ccccc21 [(R)-MDMB-4en-PICA (12)]
6.42

Query: Predicted In Vivo Hepatic Clearance, CLH; subject: CC(C)[C@H](NC(=O)c1nn(CC2CCCCC2)c2ccccc12)C(N)=O [(S)-AB-[…] (11)]
4.52
